- assay-system: CRBN (Homo sapiens, UniProt Q96SW2)
- protocol: Competition Assay (MAPPIT-like, competition with trimethoprim-lenalidomide hybrid ligand for binding to CRBN in cells)
- experimental-conditions: read-out: IC50 Competition; HEK293T cells; competition with 300 nM trimethoprim-lenalidomide hybrid ligand; luciferase 24 hours after compound treatment
Label Yes when IC50 < 6 µM; otherwise No.

Q) Below 6 µM on IC50? Entry O=C1CC/C(=C/c2ccccc2)C(=O)N1 [C68121, (3Z)-3-benzylidenepiperidine-2,6-dione]
A) No

Q) Record Cc1ccc2c(c1)C(=O)N(c1c(C(C)C)cccc1C(C)C)C2=O [5HPP-33, reference compound] : is its IC50 strictly below 6 µM?
A) Yes

Q) Dear colleague, could you confirm whether IC50 of O=C1CCC(N2C(=O)C3CCCCC3C2=O)C(=O)N1 (centres unmarked) falls below 6 µM? Thanks.
A) No

Q) Lab note: confirm whether the reported IC50 for this compound is below 6 µM, equality not counting. compound: O=C1CCC(Nc2ncc3ccccc3n2)C(=O)N1 (centres unmarked)
A) No

Lab note: next compound to report on.
Q) Would you kindly verify if IC50 of O=C1CCC(N2Cc3ccc(NCC(=O)Nc4ccccc4)cc3C2=O)C(=O)N1 (centres unmarked) is strictly less than 6 µM?
A) Yes

---

- assay-system: SALL4 recruitment to CRBN (Homo sapiens)
- Construct: Full size proteins were fused for each of the target proteins tested, except in the case of IKZF1 where isoform 7 was used
- protocol: Recruitment Assay (MAPPIT-like): SALL4 recruitment to CRBN
- experimental-conditions: HEK293T cells; pSEL-SALL4+pMG1-CRBN; luciferase 24 hours after treatment; read-out: EC50_SALL4
- Procedure: In this experimental set-up, cells were transfected with a construct encoding a CRBN-fusion protein and another one encoding a substrate-fusion protein. Test compound activity was assessed with increasing concentrations of test compounds (dose-response studies) to monitor the ability to promote CRBN-ligand-induced protein interaction. Full size proteins were fused for each of the target proteins tested, except in the case of IKZF1 where isoform 7 was used. […]
Quick reference for EC50 among some compounds

Reference set, count: 4
Q) Item under review: O=C1CCC(N2C(=O)c3ccccc3C2NCc2ccccc2)C(=O)N1 (centres unmarked) . Reported EC50?
A) 1160 nM

Q) Using the record for CC(=O)NC1c2ccccc2C(=O)N1C1CCC(=O)NC1=O (centres unmarked) , report its EC50.
A) 3030 nM

Q) Query (compound): O=C1CCC(N2Cc3ccc(NCC(=O)NC4CCOCC4)cc3C2=O)C(=O)N1 (centres unmarked) ; field requested: EC50
A) 2620 nM

Q) Look up EC50 for this compound: CC(C)OC1c2ccccc2C(=O)N1C1CCC(=O)NC1=O (centres unmarked)
A) 2700 nM

---
Q) Entry O=C1CCC(N2Cc3cc(-c4ccccc4)ccc3C2=O)C(=O)N1 (centres unmarked) : reported EC50 = ?
A) 122 nM

Q) Value lookup for EC50; key = O=C1CCC(N2Cc3ccc(-c4ccccc4)cc3C2=O)C(=O)N1 (centres unmarked)
A) 395 nM

Q) For O=C1CCC(n2nnc3ccccc3c2=O)C(=O)N1 (centres unmarked) , what is its reported EC50?
A) 517 nM

Q) Please look up its EC50: CCOC(=O)Nc1cccc2c1CN(C1CCC(=O)NC1=O)C2=O (centres unmarked)
A) 121 nM
